Tested on: S. aureus USA 300
test.summary: broth microdilution MIC assay, S. aureus USA 300
Assay type: cell-based
experimental.context: Staphylococcus aureus; Table 4; S. aureus USA300; read-out: S. aureus USA300 MIC
attribute.measured: MIC

C[C@@H](O)[C@H]1C(=O)N2C(C(=O)O)=C(SC3CN(CC4CCNCC4)C3)[C@H](C)[C@H]12 | 1 to 4 µg/mL
C[C@@H](O)[C@H]1C(=O)N2C(C(=O)O)=C(SC3CN(C[C@H]4CC[C@@H](N)CC4)C3)[C@H](C)[C@H]12 | < 1 µg/mL
C[C@@H](O)[C@H]1C(=O)N2C(C(=O)O)=C(SC3CN(C[C@H]4CNCCO4)C3)[C@H](C)[C@H]12 | 1 to 4 µg/mL
C[C@@H](O)[C@H]1C(=O)N2C(C(=O)O)=C(S[C@@H]3CCN(CC4CCNCC4(F)F)C3)[C@H](C)[C@H]12 (stereo partly drawn) | 1 to 4 µg/mL
C[C@@H](O)[C@H]1C(=O)N2C(C(=O)O)=C(SC3CN(C[C@@H]4CCNC4)C3)[C@H](C)[C@H]12 | 1 to 4 µg/mL

Log: S. aureus USA 300, molecule `C[C@@H](O)[C@H]1C(=O)N2C(C(=O)O)=C(S[C@@H]3CCN(CC4CCN(CC(N)=O)CC4)C3)[C@H](C)[C@H]12` , MIC = 1 to 4 µg/mL

###

System: P. aeruginosa ATCC 27853 (wild-type/QC strain)
test.summary: broth microdilution MIC assay, P. aeruginosa ATCC 27853
Assay type: cell-based
experimental.context: Pseudomonas aeruginosa, ATCC27853; Table 3; P. aeruginosa 27853; read-out: P. aeruginosa 27853 MIC
attribute.measured: MIC

Field: example entries. Status: answers known.
C[C@@H](O)[C@H]1C(=O)N2C(C(=O)O)=C(S[C@@H]3CCN(C[C@H]4CCCN4)C3)[C@H](C)[C@H]12 [Example 8] | 8 to 32 µg/mL
C[C@@H](O)[C@H]1C(=O)N2C(C(=O)O)=C(S[C@@H]3CCN(CC4CCNC(CN)C4)C3)[C@H](C)[C@H]12 (stereo partly drawn) [Example 30] | 8 to 32 µg/mL
C[C@@H](O)[C@H]1C(=O)N2C(C(=O)O)=C(S[C@@H]3CCN(C[C@H]4CC[C@H](CN)CC4)C3)[C@H](C)[C@H]12 [Example 17] | 1 to 4 µg/mL
C[C@@H](O)[C@H]1C(=O)N2C(C(=O)O)=C(S[C@@H]3CCN(CCN4CCNCC4)C3)[C@H](C)[C@H]12 [Example 20] | 1 to 4 µg/mL
C[C@@H](O)[C@H]1C(=O)N2C(C(=O)O)=C(S[C@@H]3CCN(C4CCC(N)(CN)CC4)C3)[C@H](C)[C@H]12 (stereo partly drawn) [Example 38] | 8 to 32 µg/mL

Could you now consider this next compound?
# compound CNCc1ccc(CN2CC[C@@H](SC3=C(C(=O)O)N4C(=O)[C@H]([C@@H](C)O)[C@H]4[C@H]3C)C2)cc1 [Example 19] ; its MIC = 1 to 4 µg/mL

###

Could you please report measured MIC for the items listed next?
Tested on: P. aeruginosa ATCC 27853 (wild-type/QC strain)
test.summary: broth microdilution MIC assay, P. aeruginosa ATCC 27853
Format: cell-based
experimental.context: Pseudomonas aeruginosa, ATCC27853; Table 3; P. aeruginosa 27853; read-out: P. aeruginosa 27853 MIC

Field: example entries. Status: answers known.
C[C@@H](O)[C@H]1C(=O)N2C(C(=O)O)=C(S[C@@H]3CCN(Cc4cccnc4)C3)[C@H](C)[C@H]12 [Example 10] | 8 to 32 µg/mL
C[C@@H](O)[C@H]1C(=O)N2C(C(=O)O)=C(S[C@@H]3CCN(C4CCNCC4)C3)[C@H](C)[C@H]12 [Example 1] | 1 to 4 µg/mL
CC1CC(CN2CC[C@@H](SC3=C(C(=O)O)N4C(=O)[C@H]([C@@H](C)O)[C@H]4[C@H]3C)C2)CCN1 (stereo partly shown) [Example 28] | 8 to 32 µg/mL
C[C@@H](O)[C@H]1C(=O)N2C(C(=O)O)=C(S[C@@H]3CCN(CC4CCCNC4)C3)[C@H](C)[C@H]12 (stereo partly shown) [Example 12] | 8 to 32 µg/mL
C[C@@H](O)[C@H]1C(=O)N2C(C(=O)O)=C(S[C@H]3CCN(C4CCNCC4)C3)[C@H](C)[C@H]12 [Example 2] | 1 to 4 µg/mL
C[C@@H](O)[C@H]1C(=O)N2C(C(=O)O)=C(S[C@@H]3CCN(Cc4ccc(CN)c(CN)c4)C3)[C@H](C)[C@H]12 [Example 31] | 8 to 32 µg/mL
C[C@@H](O)[C@H]1C(=O)N2C(C(=O)O)=C(S[C@@H]3CCN(CC4CCNCC4)C3)[C@H](C)[C@H]12 [Example 7] | 1 to 4 µg/mL
C[C@@H](O)[C@H]1C(=O)N2C(C(=O)O)=C(S[C@@H]3CCN(C4CCNC4)C3)[C@H](C)[C@H]12 (stereo partly shown) [Example 6] | 1 to 4 µg/mL

Hello, I would appreciate it if you could give MIC for each entry below.
1. C[C@@H](O)[C@H]1C(=O)N2C(C(=O)O)=C(S[C@@H]3C[C@@H](CO)N(C4CCNCC4)C3)[C@H](C)[C@H]12 [Example 5]
2. C[C@@H](O)[C@H]1C(=O)N2C(C(=O)O)=C(S[C@@H]3CCN(CCCN)C3)[C@H](C)[C@H]12 [Example 36]

1 to 4 µg/mL
8 to 32 µg/mL

Hello, I would appreciate it if you could give MIC for each entry below.
1. C[C@@H](O)[C@H]1C(=O)N2C(C(=O)O)=C(S[C@@H]3CCN(C4CCCNC4)C3)[C@H](C)[C@H]12 (stereo partly shown) [Example 4]
2. CNCCCCN1CC[C@@H](SC2=C(C(=O)O)N3C(=O)[C@H]([C@@H](C)O)[C@H]3[C@H]2C)C1 [Example 37]

1: 1 to 4 µg/mL; 2: 1 to 4 µg/mL

Log: P. aeruginosa ATCC 27853 (wild-type/QC strain), molecule C[C@@H](O)[C@H]1C(=O)N2C(C(=O)O)=C(S[C@@H]3CCN(CCC4CCNCC4)C3)[C@H](C)[C@H]12 [Example 11] , MIC = 1 to 4 µg/mL

###

Could you please report measured MIC for the items listed next?
Test system: P. aeruginosa ATCC 27853 (wild-type/QC strain)
test.summary: broth microdilution MIC assay, P. aeruginosa ATCC 27853
Type: cell-based
experimental.context: Pseudomonas aeruginosa, ATCC27853; Table 3; P. aeruginosa 27853; read-out: P. aeruginosa 27853 MIC

Field: example entries. Status: answers known.
C[C@@H](O)[C@H]1C(=O)N2C(C(=O)O)=C(S[C@@H]3CCN(Cc4ccc(C(N)CN)cc4)C3)[C@H](C)[C@H]12 (stereo partly drawn) | 8 to 32 µg/mL
C[C@@H](O)[C@H]1C(=O)N2C(C(=O)O)=C(S[C@@H]3CCN(C4CCC(NCCCB(O)O)CC4)C3)[C@H](C)[C@H]12 (stereo partly drawn) | 8 to 32 µg/mL

Could you now consider this next compound?
# compound `C[C@@H](O)[C@H]1C(=O)N2C(C(=O)O)=C(S[C@@H]3CCN(CC4CCN(CCN)CC4)C3)[C@H](C)[C@H]12` ; its MIC = 1 to 4 µg/mL

###

Test system: P. aeruginosa ATCC 27853 (wild-type/QC strain)
test.summary: broth microdilution MIC assay, P. aeruginosa ATCC 27853
Assay type: cell-based
experimental.context: Pseudomonas aeruginosa, ATCC27853; Table 3; P. aeruginosa 27853; read-out: P. aeruginosa 27853 MIC
Could you please report measured MIC for the items listed next?

Field: example entries. Status: answers known.
C[C@@H](O)[C@H]1C(=O)N2C(C(=O)O)=C(S[C@@H]3CCN([C@H]4CC[C@H](N)CC4)C3)[C@H](C)[C@H]12 | 1 to 4 µg/mL
C[C@@H](O)[C@H]1C(=O)N2C(C(=O)O)=C(S[C@@H]3CCN(CC4CCCCN4)C3)[C@H](C)[C@H]12 (stereo partly drawn) | 8 to 32 µg/mL
C[C@@H](O)[C@H]1C(=O)N2C(C(=O)O)=C(S[C@@H]3CCN(Cc4ccncc4)C3)[C@H](C)[C@H]12 | 8 to 32 µg/mL
C[C@@H](O)[C@H]1C(=O)N2C(C(=O)[O-])=C(S[C@@H]3CC[N+](C)(CC4CCNCC4)C3)[C@H](C)[C@H]12 (stereo partly drawn) | 1 to 4 µg/mL
C[C@@H](O)[C@H]1C(=O)N2C(C(=O)O)=C(S[C@@H]3CCN(C[C@@H]4CCCN4)C3)[C@H](C)[C@H]12 | 8 to 32 µg/mL

Could you now consider this next molecule?
# molecule `CN[C@H]1CC[C@H](CN2CC[C@@H](SC3=C(C(=O)O)N4C(=O)[C@H]([C@@H](C)O)[C@H]4[C@H]3C)C2)CC1` ; its MIC = 1 to 4 µg/mL
